system: Human pancreatic cancer cell CFPAC-1; assay: CCK-8 cell proliferation assay, CFPAC-1; assay type: cell-based; settings: CFPAC-1 cells, CCK-8, 24 hrs with drug, OD 450 nm
# pIC50 annotations
# pIC50 is unitless: minus log10 of the molar concentration; print number only

{"columns": ["Molecule", "Tested On", "Quantitative Result"],
 "data": [
  ["O=C(NCCCCCC1CCN(C(=O)c2ccccc2)C1)Nc1cccnc1 (stereo not drawn)", "Human pancreatic cancer cell CFPAC-1", 7.34],
  ["COc1cccc(OC)c1C(=O)N1CCC(CCCCCNC(=O)Nc2ccncc2)C1 (stereo not drawn)", "Human pancreatic cancer cell CFPAC-1", 7.41],
  ["O=C(NCCCCCC1CCN(C(=O)c2cc3ccccc3o2)C1)Nc1ccncc1 (stereo not drawn)", "Human pancreatic cancer cell CFPAC-1", 7.38],
  ["O=C(NCCCCCCC1CCN(C(=O)C2CCCS2)C1)Nc1ccncc1 (stereo not drawn)", "Human pancreatic cancer cell CFPAC-1", 7.39],
  ["O=C(NCCCCC[C@H]1CCN(C(=O)c2cccs2)C1)Nc1ccncc1", "Human pancreatic cancer cell CFPAC-1", 7.60],
  ["O=C(NCCCCCCC1CCN(C(=O)c2ccccc2)C1)Nc1cc(F)nc(F)c1 (stereo not drawn)", "Human pancreatic cancer cell CFPAC-1", 7.43],
  ["O=C(NCCCCCC1CCN(C(=O)C2CCCS2)C1)Nc1ccncc1 (stereo not drawn)", "Human pancreatic cancer cell CFPAC-1", 7.39],
  ["O=C(NCCCCCCC1CCN(C(=O)c2ccco2)C1)Nc1ccnc(F)c1 (stereo not drawn)", "Human pancreatic cancer cell CFPAC-1", 7.41],
  ["O=C(NCCCCCC1CCN(C(=O)c2cccs2)C1)Nc1cccnc1 (stereo not drawn)", "Human pancreatic cancer cell CFPAC-1", 7.41],
  ["COc1cccc(OC)c1C(=O)N1CCC(CCCCCNC(=O)Nc2cccnc2)C1 (stereo not drawn)", "Human pancreatic cancer cell CFPAC-1", 7.25]
]}

Lookup: Fill in pIC50 for record O=C(NCCCCCCC1CCN(C(=O)c2cc3ccccc3o2)C1)Nc1ccnc(F)c1 (stereo not drawn)
Found: 7.38

Lookup: Recall and state the measured pIC50 for O=C(NCCCCCCC1CCN(C(=O)c2cc3ccccc3o2)C1)Nc1ccncc1 (stereo not drawn) .
Found: 7.31
